Molecular target: T1, murine GPC3-his protein (Sino Biological, Cat. No. 50989-M08B) (murine, UniProt Q8CFZ4 25-558)
T1 construct: Bought protein; also called murine GPC3 protein
T1 sequence (Q8CFZ4 25-558 limits assumed): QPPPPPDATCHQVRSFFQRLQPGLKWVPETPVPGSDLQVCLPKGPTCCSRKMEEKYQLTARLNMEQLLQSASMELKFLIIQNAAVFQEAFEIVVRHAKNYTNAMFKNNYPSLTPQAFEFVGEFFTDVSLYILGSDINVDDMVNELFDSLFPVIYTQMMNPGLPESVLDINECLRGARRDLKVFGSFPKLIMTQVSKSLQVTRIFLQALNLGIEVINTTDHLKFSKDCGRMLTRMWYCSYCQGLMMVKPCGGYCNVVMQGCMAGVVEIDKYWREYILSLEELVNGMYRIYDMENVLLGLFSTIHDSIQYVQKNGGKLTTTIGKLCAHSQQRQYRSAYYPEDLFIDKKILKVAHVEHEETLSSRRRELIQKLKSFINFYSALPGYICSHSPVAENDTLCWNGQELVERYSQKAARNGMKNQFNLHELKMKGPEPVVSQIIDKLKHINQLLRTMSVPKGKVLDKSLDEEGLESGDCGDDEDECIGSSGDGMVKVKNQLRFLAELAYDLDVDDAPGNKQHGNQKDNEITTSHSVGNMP
Experiment: ELISA, coated murine GPC3-His;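 further: antigen coated on plates at 1 µg/mL, test antibody bound for 2 h at 37 °C, detected with HRP-conjugated secondary antibody and TMB substrate after acid stop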

{"Binder": "F4.18.4 human-murine chimeric antibody (antibody, human IgG1, kappa, V domains shown) VH: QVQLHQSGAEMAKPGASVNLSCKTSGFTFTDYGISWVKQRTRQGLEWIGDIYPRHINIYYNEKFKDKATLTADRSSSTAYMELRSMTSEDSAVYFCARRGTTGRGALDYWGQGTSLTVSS VL: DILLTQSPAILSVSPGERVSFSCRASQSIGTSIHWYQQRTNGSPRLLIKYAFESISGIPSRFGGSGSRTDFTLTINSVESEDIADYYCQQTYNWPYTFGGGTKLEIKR", "Result unit": "OD450 nm", "OD450 at 0.001 nM antibody": 0.15}
{"Binder": "F1.41.17 human-murine chimeric antibody (antibody, human IgG1, kappa, V domains shown) VH: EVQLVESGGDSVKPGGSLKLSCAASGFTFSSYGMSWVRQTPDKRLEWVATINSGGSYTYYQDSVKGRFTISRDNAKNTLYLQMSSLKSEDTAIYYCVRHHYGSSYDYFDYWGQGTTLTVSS VL: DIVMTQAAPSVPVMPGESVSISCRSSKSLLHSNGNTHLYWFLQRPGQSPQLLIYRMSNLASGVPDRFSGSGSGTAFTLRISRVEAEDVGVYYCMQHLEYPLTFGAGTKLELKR", "Result unit": "OD450 nm", "OD450 at 0.001 nM antibody": 0.05}
{"Binder": "F1.2.14 human-murine chimeric antibody (antibody, human IgG1, kappa, V domains shown) VH: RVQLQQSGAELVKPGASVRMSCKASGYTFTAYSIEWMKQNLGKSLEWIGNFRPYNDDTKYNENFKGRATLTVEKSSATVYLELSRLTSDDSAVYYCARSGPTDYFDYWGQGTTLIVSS VL: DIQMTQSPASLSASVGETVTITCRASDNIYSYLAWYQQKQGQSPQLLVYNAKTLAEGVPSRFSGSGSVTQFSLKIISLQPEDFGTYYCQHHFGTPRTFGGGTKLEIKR", "Result unit": "OD450 nm", "OD450 at 0.001 nM antibody": 0.05}
{"Binder": "F4.13.7 human-murine chimeric antibody (antibody, human IgG1, kappa, V domains shown) VH: QVQLQQPGAELVKPGASVKLSCKASGYTFTNNWVHWVKQRPGQGLEWTGMIHPDSGSTIYNEKFQSKATLTVDKSSSTAYMQLSSLTSEDSAVYYCARGYYDSSSYYAMDYWGQGTSVTVSS VL: NIQMTQTTSSLSASLGDRVTISCSASQGIFNYLNWYQQKPDGTVKLLIYYTSSLHSGVPSRFSGSGSGTDYSLTISNLEPEDIATYYCQQYSKLPWTFGGGTKLEIKR", "Result unit": "OD450 nm", "OD450 at 0.001 nM antibody": 0.11}
{"Binder": "F3.38.7 human-murine chimeric antibody (antibody, human IgG1, kappa, V domains shown) VH: QVQLQQSGAELVRPGASVKLSCKASGYTFTDYEIHWVKQTPVLGLEWIGAIDPKTGNTAYNQKFMGKATLTADKSSTTAYMDLRSLTSEDSAVYYCTRYFSFAYWGQGTLVTVSA VL: DVLMTQTPLSLPVSLGDQASISCRSSQTFVHSNGNTYLQWYLQKPGQSPKLLIYKVSNRFSGVPDRFSGSGSGTDFTLKISRVEAEDLGVYYCFQGSHVPYTFGSGTKLEIKR", "Result unit": "OD450 nm", "OD450 at 0.001 nM antibody": 0.06}

Source of measurements: patent US20260116991A1
